Here's a batch of molecules along with measured pIC50 for UniProt Q9NWZ3.
Bear in mind: pIC50 is minus log10 of a mol/L concentration; give just that figure.

These solved cases illustrate the format of a correct answer.
- Molecule: "CC(O)Cc1cn(-c2cnc(-n3ncc4cc(C#N)cnc43)cc2NC(C)C)nn1 (stereo not shown) [Example 268]"
  pIC50: 7.42
- Molecule: "CC(C)Nc1cc(-n2ncc3cc(C#N)cnc32)ncc1-c1cc(CCC(C)(C)O)no1 [Example 426]"
  pIC50: 9.00
- Molecule: "CC(C)Nc1cc(-n2ncc3cc(C#N)cnc32)ncc1-c1cn(C2CCOCC2)nn1 [Example 19]"
  pIC50: 9.00

Query: Input CC(C)Nc1cc(-n2ncc3cc(C#N)cnc32)ncc1-c1cn(C[C@H](C)CO)cn1 [Example 228] , output reported pIC50.
Reply: 7.72

---

Assay: Caco-2 Permeability Assay
Assay type: in vitro ADME
Settings: human, Caco-2, test compound 3 μM
Protocol: Caco-2 Permeability Assay Thirteen to 27 days prior to assay, Caco-2 cells were seeded onto collagen-coated polycarbonate filter membranes in 24-well transwell plates at a density of 1.45×10^5 cells/cm^2, approximately 4.8×10^4 cells per well. […] The cells were evaluated for tight junction formation just prior to assay. […] The samples were subsequently analyzed by LC-MS/MS to determine concentrations of compound.
Threshold-based label: Papp at 2 h, 3 µM under 20 ×10⁻⁶ cm/s gives true, Papp at 2 h, 3 µM not under 20 ×10⁻⁶ cm/s gives false.

Query: Is it true that Papp at 2 h, 3 µM reported for CCNc1cc(-n2ncc3cc(C#N)cnc32)ncc1C1=NOC(CCC(C)(C)O)C1 (stereo not shown) [Example 440] is less than 20 ×10⁻⁶ cm/s?
Reply: false

Query: Is it true that Papp at 2 h, 3 µM reported for CC(C)(O)CCc1cn(-c2cnc(-n3ncc4cc(C#N)cnc43)cc2NC2CCOC2)nn1 (stereo not shown) [Example 365] is less than 20 ×10⁻⁶ cm/s?
Reply: true

Query: Is it true that Papp at 2 h, 3 µM reported for CCCn1cc(-c2cnc(-n3ncc4cc(C#N)cnc43)cc2NC2CC2)nn1 [Example 34] is less than 20 ×10⁻⁶ cm/s?
Reply: false

Query: Is it true that Papp at 2 h, 3 µM reported for CC(C)Nc1cc(-n2cnc3cc(C#N)cnc32)ncc1-c1cn(CCC(F)(F)F)nn1 [Example 42] is less than 20 ×10⁻⁶ cm/s?
Reply: true

Query: Is it true that Papp at 2 h, 3 µM reported for CC(C)(O)CCc1cn(-c2cnc(-n3ncc4cc(C#N)cnc43)cc2NC(CF)CF)nn1 [Example 377] is less than 20 ×10⁻⁶ cm/s?
Reply: true

Query: Is it true that Papp at 2 h, 3 µM reported for CC(C)(O)CCc1cn(-c2cnc(-n3ncc4cc(C#N)cnc43)cc2NC2CCC(F)(F)C2)nn1 (single isomer, unassigned) [Example 347] is less than 20 ×10⁻⁶ cm/s?
Reply: true

Query: Is it true that Papp at 2 h, 3 µM reported for CC(C)Nc1cc(-n2ncc3cc(C#N)cnc32)ncc1-c1cc(C2CC(F)(F)CCN2)no1 (stereo not shown) [Example 422] is less than 20 ×10⁻⁶ cm/s?
Reply: false

Query: Is it true that Papp at 2 h, 3 µM reported for CC(C)Nc1cc(-n2ncc3cnc(N)nc32)ncc1-n1cc(CCC(C)(C)F)nn1 [Example 351] is less than 20 ×10⁻⁶ cm/s?
Reply: false

Query: Is it true that Papp at 2 h, 3 µM reported for CC(=O)N1CC(n2cc(-c3cnc(-n4ncc5cc(C#N)cnc54)cc3NC(C)C)nn2)C1 [Example 154] is less than 20 ×10⁻⁶ cm/s?
Reply: true

Query: Is it true that Papp at 2 h, 3 µM reported for CC(=O)N1CC(c2cc(-c3cnc(-n4ncc5cc(C#N)cnc54)cc3NC(C)C)on2)C1 [Example 398] is less than 20 ×10⁻⁶ cm/s?
Reply: true

Query: Is it true that Papp at 2 h, 3 µM reported for CC(C)Nc1cc(-n2ncc3cc(C#N)cnc32)ncc1-c1cn(CCN2CCOCC2)nn1 [Example 12] is less than 20 ×10⁻⁶ cm/s?
Reply: false

---

As shown below, each of these compounds has a reported pIC50 value.
Target: UniProt:Q9NWZ3
Bear in mind: pIC50 is minus log10 of a mol/L concentration; give just that figure.

These solved cases illustrate the format of a correct answer.
- Compound: "CCCc1cn(-c2cnc(-n3cnc4cc(C#N)cnc43)cc2N[C@@H](C)CO)nn1"
  pIC50: 7.77
- Compound: "CC(C)Nc1cc(-n2ncc3cc(C#N)cnc32)ncc1-c1cn(CC2CC2)nn1"
  pIC50: 8.30
- Compound: "CCCc1cn(-c2cnc(-n3ncc4cc(Cl)cnc43)cc2NC(C)C)nn1"
  pIC50: 7.89
- Compound: "Cc1ccn(-c2cnc(-n3ncc4cc(C#N)cnc43)cc2NC(C)C)n1"
  pIC50: 6.47

Query: Under UniProt:Q9NWZ3, report pIC50 for CC(C)Nc1cc(-n2ncc3cc(C#N)cnc32)ncc1-c1cn(C2CN(c3ncccn3)C2)nn1
Reply: 8.30

Query: Under UniProt:Q9NWZ3, report pIC50 for CC(=O)N1CC(n2cc(-c3cnc(-n4ncc5cc(Cl)cnc54)cc3NC(C)C)nn2)C1
Reply: 8.22

---

Target: IRAK4 (Homo sapiens (Human), UniProt Q9NWZ3)
Sequence (Q9NWZ3 whole entry, species assumed): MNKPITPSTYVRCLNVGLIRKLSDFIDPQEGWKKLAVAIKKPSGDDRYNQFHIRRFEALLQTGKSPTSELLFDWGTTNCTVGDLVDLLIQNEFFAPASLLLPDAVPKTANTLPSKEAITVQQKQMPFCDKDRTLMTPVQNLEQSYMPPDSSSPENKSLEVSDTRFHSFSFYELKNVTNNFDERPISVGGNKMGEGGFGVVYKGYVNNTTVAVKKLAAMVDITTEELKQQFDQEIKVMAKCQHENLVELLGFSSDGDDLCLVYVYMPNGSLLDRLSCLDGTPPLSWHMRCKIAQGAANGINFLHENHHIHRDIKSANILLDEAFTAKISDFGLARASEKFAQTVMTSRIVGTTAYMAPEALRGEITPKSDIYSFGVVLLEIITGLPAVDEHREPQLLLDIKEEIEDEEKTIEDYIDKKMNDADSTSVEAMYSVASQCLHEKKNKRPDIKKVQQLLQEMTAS
Assay: IRAK4 Inhibition Assay
Assay type: biochemical
Settings: ATP 500 μM; IRAK4 0.6 nM
Endpoint Label: IC50 (nM)
Report the figure in nM without appending any unit label.

- Molecule: "CC(C)Nc1cc(-n2ncc3cc(C#N)c(N)nc32)ncc1-c1cn(C2CCCCC2)nn1"
  Target Or System: "IRAK4 (Homo sapiens (Human), UniProt Q9NWZ3)"
  Unit Abbreviation: "nM"
  Assay Result: 2

Query: Input CCn1cc(-c2cnc(-n3ncc4cc(C#N)cnc43)cc2NC(C)C)cn1 , output reported IC50.
Reply: 65

Query: Input CC(C)Nc1cc(-n2ncc3cc(C#N)cnc32)ncc1-n1cc(CCC(C)(C)O)cn1 , output reported IC50.
Reply: 8

Query: Input CCCn1cc(-c2cnc(-n3ncc4cc(C#N)cnc43)cc2NC2CCOCC2)nn1 , output reported IC50.
Reply: 4

Query: Input CC(C)Nc1cc(-n2ncc3cc(C#N)cnc32)ncc1-c1cn(C[C@H](C)O)cn1 , output reported IC50.
Reply: 63

Query: Input CC(C)Nc1cc(-n2ncc3cc(C#N)cnc32)ncc1-c1nnc(N[C@H]2CC[C@H](N)CC2)o1 , output reported IC50.
Reply: 4

Query: Input CC(C)Nc1cc(-n2ncc3cc(C#N)cnc32)ncc1-n1cc(CCCC#N)nn1 , output reported IC50.
Reply: 6

Query: Input CC(C)Nc1cc(-n2cnc3cc(C#N)cnc32)ncc1-c1cn(C[C@@H](C)O)nn1 , output reported IC50.
Reply: 14

Query: Input CCN1CC(n2cc(-c3cnc(-n4ncc5cc(C#N)cnc54)cc3NC(C)C)nn2)C1 , output reported IC50.
Reply: 2

Query: Input CC(C)Nc1cc(-n2ncc3cc(C#N)cnc32)ncc1-n1cc(C(N)=O)nn1 , output reported IC50.
Reply: 304

Query: Input CC(O)Cc1cn(-c2cnc(-n3ncc4cc(C#N)cnc43)cc2NCC(C)(C)O)nn1 (centres unmarked) , output reported IC50.
Reply: 8

Query: Input CC(C)Nc1cc(-n2ncc3cc(Cl)cnc32)ncc1-c1cn(CC2CC2)nn1 , output reported IC50.
Reply: 16

Query: Input CC(C)Nc1cc(-n2ncc3cc(C#N)cnc32)ncc1-c1cn(C2CN(C#N)C2)nn1 , output reported IC50.
Reply: 8

Query: Input CC(C)Nc1cc(-n2ncc3cc(C#N)cnc32)ncc1-c1cn(CCC(C)(C)O)cn1 , output reported IC50.
Reply: 3

Query: Input CC(C)Nc1cc(-n2ncc3cc(C#N)cnc32)ncc1-c1cc(C2CNC2)no1 , output reported IC50.
Reply: 5

Query: Input CC(C)Nc1cc(-n2cnc3cc(C#N)cnc32)ncc1-c1cn([C@@H]2COC[C@H]2O)nn1 (single isomer, unassigned) , output reported IC50.
Reply: 7

Query: Input CC(C)Nc1cc(-n2ncc3cc(C#N)cnc32)ncc1-c1cn(C(C)(C)C)nn1 , output reported IC50.
Reply: 17

Query: Input CC(C)CCc1cn(-c2cnc(-n3ncc4cc(C#N)cnc43)cc2NC(C)C)nn1 , output reported IC50.
Reply: 3

---

Test: Caco-2 Permeability Assay
Assay type: in vitro ADME
Settings: human, Caco-2, test compound 3 μM
Answer Criterion not met if Papp at 2 h, 3 µM is under 10 ×10⁻⁶ cm/s, and Criterion met if it is 10 ×10⁻⁶ cm/s or more.

Consider the worked cases shown below.
- Compound: "CC(=O)N1CC[C@@H](n2cc(-c3cnc(-n4ncc5cc(C#N)cnc54)cc3NC(C)C)nn2)[C@H](O)C1 (single isomer, unassigned) [Example 197]"
  Label: "Criterion not met"
- Compound: "CC(=O)Cn1cc(-c2cnc(-n3ncc4cc(C#N)cnc43)cc2NC(C)C)nn1"
  Label: "Criterion not met"
- Compound: "COC(=O)NCC1CC(c2cnc(-n3ncc4cc(C#N)cnc43)cc2NC(C)C)=NO1 (single isomer, unassigned)"
  Label: "Criterion met"

Query: Hi team, for CCCc1cn(-c2cnc(-n3cnc4cc(C#N)cnc43)cc2NC(C)C)nn1 , is the recorded Papp at 2 h, 3 µM at or above 10 ×10⁻⁶ cm/s?
Reply: Criterion met

Query: Hi team, for CC(C)(O)CCc1cn(-c2cnc(-n3ncc4cc(C#N)cnc43)cc2N[C@H]2CC[C@H](F)C2)nn1 , is the recorded Papp at 2 h, 3 µM at or above 10 ×10⁻⁶ cm/s?
Reply: Criterion not met

Query: Hi team, for CC(C)Nc1cc(-n2ncc3cc(C#N)cnc32)ncc1-c1cn([C@@H]2CCCC[C@@]2(C)O)nn1 (relative stereo) , is the recorded Papp at 2 h, 3 µM at or above 10 ×10⁻⁶ cm/s?
Reply: Criterion met

Query: Hi team, for CC(C)Nc1cc(-n2ncc3cc(C#N)c(N)nc32)ncc1-c1cn(C2CCCCC2)nn1 , is the recorded Papp at 2 h, 3 µM at or above 10 ×10⁻⁶ cm/s?
Reply: Criterion not met
